meta.source: ChEMBL document CHEMBL1152783

Consider the following compounds and their measured IC50 readings.
Study System: Estrogen receptor beta (Homo sapiens)
Sequence (Q92731 whole entry): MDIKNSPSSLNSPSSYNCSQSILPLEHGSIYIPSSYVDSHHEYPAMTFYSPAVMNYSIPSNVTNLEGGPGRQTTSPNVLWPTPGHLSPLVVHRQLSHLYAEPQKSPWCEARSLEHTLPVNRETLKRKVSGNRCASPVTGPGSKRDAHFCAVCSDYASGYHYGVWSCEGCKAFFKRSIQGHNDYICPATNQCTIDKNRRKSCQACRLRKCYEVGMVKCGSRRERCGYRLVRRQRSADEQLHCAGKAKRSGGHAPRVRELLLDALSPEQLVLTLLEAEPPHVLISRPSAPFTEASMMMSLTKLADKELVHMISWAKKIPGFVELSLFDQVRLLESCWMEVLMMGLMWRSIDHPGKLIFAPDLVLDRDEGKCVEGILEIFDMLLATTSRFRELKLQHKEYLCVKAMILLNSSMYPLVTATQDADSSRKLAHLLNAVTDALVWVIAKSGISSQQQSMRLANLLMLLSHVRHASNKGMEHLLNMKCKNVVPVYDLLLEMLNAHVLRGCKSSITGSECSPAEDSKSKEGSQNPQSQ
Assay Method Text: Binding affinity to human ERbeta
Answer in µM, number only, no unit symbol.

Tell us which IC50 value is on record for CC#C[C@@]1(O)CC[C@@]2(CC)c3ccc(OCc4ccncc4)cc3CC[C@@H]2C1
3.5

# next compound below
Tell us which IC50 value is on record for CC#C[C@@]1(O)CC[C@@]2(CC)c3ccc(O)cc3CC[C@@H]2C1
0.58

###

Study System: Glucocorticoid receptor (Homo sapiens)
Assay Method Text: Binding affinity to human glucocorticoid receptor
Property Measured: pIC50
Friendly reminder that pIC50 comes from taking -log10 of the concentration in mol/L.

Tell us which pIC50 value is on record for C=CCC12CC[C@](O)(C#CC)C[C@H]1CCc1cc(O)ccc12 (single isomer, unassigned)
8.21

Tell us which pIC50 value is on record for CC#C[C@@]1(O)CC[C@@]2(C)c3ccc(O)cc3CC[C@@H]2C1
7.77

Tell us which pIC50 value is on record for CC[C@@]12CC[C@](O)(c3ccccc3)C[C@H]1CCc1cc(OCc3cccnc3C)ccc12
8.22

Tell us which pIC50 value is on record for CC#C[C@@]1(O)CC[C@@]2(CCC)c3ccc(O)cc3CC[C@@H]2C1
8.82

---
Tell us which pIC50 value is on record for CC#C[C@]1(O)C[C@H]2CCc3cc(O)ccc3[C@]2(CC)[C@H](O)C1
6.44

Tell us which pIC50 value is on record for CC[C@@]12C[C@@H](O)[C@](O)(c3ccccc3)C[C@H]1CCc1cc(O)ccc12
8.42

Tell us which pIC50 value is on record for CC[C@@]12C[C@H](O)[C@](O)(c3ccccc3)C[C@H]1CCc1cc(O)ccc12
8.60

###

Study System: Androgen receptor (Homo sapiens)
Sequence (P10275 whole entry): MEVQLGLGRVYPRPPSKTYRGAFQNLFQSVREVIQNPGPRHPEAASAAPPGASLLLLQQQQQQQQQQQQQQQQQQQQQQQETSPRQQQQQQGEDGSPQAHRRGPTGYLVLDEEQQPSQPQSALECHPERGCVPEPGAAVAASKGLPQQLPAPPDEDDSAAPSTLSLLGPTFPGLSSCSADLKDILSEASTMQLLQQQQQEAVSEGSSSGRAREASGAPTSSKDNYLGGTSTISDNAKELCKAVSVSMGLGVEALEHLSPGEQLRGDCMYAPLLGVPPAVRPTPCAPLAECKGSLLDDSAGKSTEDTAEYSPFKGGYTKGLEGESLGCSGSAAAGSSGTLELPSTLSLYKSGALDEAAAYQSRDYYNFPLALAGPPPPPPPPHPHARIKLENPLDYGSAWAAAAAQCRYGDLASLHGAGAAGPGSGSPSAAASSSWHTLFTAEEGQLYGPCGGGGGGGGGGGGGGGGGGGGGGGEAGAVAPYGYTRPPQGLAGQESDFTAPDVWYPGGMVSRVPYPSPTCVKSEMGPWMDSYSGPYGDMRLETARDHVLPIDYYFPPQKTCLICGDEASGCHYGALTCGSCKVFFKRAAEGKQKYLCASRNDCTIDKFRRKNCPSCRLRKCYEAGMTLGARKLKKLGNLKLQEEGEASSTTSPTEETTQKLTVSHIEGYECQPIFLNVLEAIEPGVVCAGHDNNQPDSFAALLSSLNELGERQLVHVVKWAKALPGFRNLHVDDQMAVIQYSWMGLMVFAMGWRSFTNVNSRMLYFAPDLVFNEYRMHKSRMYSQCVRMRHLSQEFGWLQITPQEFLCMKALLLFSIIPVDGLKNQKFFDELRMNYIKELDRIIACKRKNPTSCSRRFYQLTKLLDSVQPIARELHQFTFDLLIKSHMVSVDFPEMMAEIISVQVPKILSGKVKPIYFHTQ
Property Measured: pIC50
Friendly reminder that pIC50 comes from taking -log10 of the concentration in mol/L.

Tell us which pIC50 value is on record for CC#C[C@@]1(O)CC[C@@]2(CC)c3ccc(O)cc3CC[C@@H]2C1
6.38

# next compound below
Tell us which pIC50 value is on record for CC#C[C@@]1(O)CC[C@@]2(CC)c3ccc(OCc4cccnc4C)cc3CC[C@@H]2C1
6.06

###

Consider the following compounds and their measured IC50 readings.
Study System: Glucocorticoid receptor (Homo sapiens, UniProt P04150)
Sequence (P04150 whole entry): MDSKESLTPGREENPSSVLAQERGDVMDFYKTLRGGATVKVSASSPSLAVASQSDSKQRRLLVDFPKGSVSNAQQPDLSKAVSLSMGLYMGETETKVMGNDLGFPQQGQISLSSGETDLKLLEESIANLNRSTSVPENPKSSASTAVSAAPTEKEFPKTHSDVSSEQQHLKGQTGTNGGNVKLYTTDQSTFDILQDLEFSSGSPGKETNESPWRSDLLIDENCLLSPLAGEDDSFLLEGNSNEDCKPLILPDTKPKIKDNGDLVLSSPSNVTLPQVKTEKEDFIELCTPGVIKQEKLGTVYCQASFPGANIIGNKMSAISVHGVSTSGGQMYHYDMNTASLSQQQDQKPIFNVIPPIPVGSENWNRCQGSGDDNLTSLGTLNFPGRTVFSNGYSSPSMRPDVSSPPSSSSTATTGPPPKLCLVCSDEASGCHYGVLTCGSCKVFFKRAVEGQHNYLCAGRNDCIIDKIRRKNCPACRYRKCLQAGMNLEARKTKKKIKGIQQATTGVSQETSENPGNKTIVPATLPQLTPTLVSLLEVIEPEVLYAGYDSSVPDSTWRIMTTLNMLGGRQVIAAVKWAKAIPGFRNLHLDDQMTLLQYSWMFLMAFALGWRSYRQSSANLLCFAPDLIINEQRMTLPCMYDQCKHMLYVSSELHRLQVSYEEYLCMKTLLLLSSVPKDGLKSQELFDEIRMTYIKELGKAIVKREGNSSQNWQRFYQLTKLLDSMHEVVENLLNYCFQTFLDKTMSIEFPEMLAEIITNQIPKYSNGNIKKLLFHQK
Assay Method Text: Transrepression activity at GR in human SW1353 cells assessed as inhibition of IL1-stimulated MMP13 production after 24 hrs by whole cell ELISA
Type: cell-based
Answer in nM, number only, no unit symbol.

Tell us which IC50 value is on record for CC[C@@]12C[C@H](O)[C@H](c3ccccc3)C[C@H]1CCc1cc(O)ccc12
1100

Tell us which IC50 value is on record for CC#C[C@@]1(O)CC[C@@]2(CC)c3ccc(OCc4ccncc4)cc3CC[C@@H]2C1
31

Tell us which IC50 value is on record for CC#C[C@]1(O)C[C@H]2CCc3cc(OCc4cccnc4C)ccc3[C@]2(CC)C[C@@H]1O
15

Tell us which IC50 value is on record for CC#C[C@]1(O)C[C@H]2CCc3cc(O)ccc3[C@]2(CC)C[C@@H]1O
63

Tell us which IC50 value is on record for CC#C[C@@]1(O)CC[C@@]2(CC)c3ccc(OCc4cccnc4C)cc3CC[C@@H]2C1
6.3

Tell us which IC50 value is on record for CC[C@@]12C[C@H](O)[C@](O)(c3ccccc3)C[C@H]1CCc1cc(OCc3cccnc3C)ccc12
38

---
Tell us which IC50 value is on record for C=CCC12CC[C@](O)(C#CC)C[C@H]1CCc1cc(O)ccc12 (single isomer, unassigned)
14

Tell us which IC50 value is on record for CC#C[C@@]1(O)CC[C@@]2(CC)c3ccc(O)cc3CC[C@@H]2C1
14

Tell us which IC50 value is on record for CC[C@@]12C[C@@H](O)[C@](O)(c3ccccc3)C[C@H]1CCc1cc(O)ccc12
5000

Tell us which IC50 value is on record for CC[C@@]12CC[C@](O)(c3ccccc3)C[C@H]1CCc1cc(OCc3cccnc3C)ccc12
1500

Tell us which IC50 value is on record for CC[C@@]12C[C@H](O)[C@](O)(c3ccccc3)C[C@H]1CCc1cc(O)ccc12
140
